The origin of these recorded values is ChEMBL document CHEMBL3872210.

- ASSAY_PROTOCOL: Selectivity index, ratio of CC50 for cytotoxicity against human HeLa cells to EC50 for photocytotoxicity against human HeLa cells
- Format: toxicity, cell-based
- PROTOCOL_CONDITIONS: read-out: Ratio CC50/EC50
OUTCOME_MEASURE: selectivity ratio

Data request: Provide one value: measured selectivity ratio of `CCOC(=O)c1cc2c(n1Cc1ccccc1)-c1nc(N)ncc1CCC2`
Data returned: > 455

Data request: Provide one value: measured selectivity ratio of `CCOC(=O)c1cc2c(n1C)-c1nc(Nc3ccccc3)ncc1CCC2`
Data returned: > 1040

Data request: Provide one value: measured selectivity ratio of `COc1ccc(Cn2c(C(N)=O)cc3c2-c2nc(Nc4ccccc4)ncc2CCC3)cc1`
Data returned: > 610

Data request: Provide one value: measured selectivity ratio of `CCOC(=O)c1cc2c(n1Cc1ccc(OC)cc1)-c1nc(Nc3ccccc3)ncc1CCC2`
Data returned: > 559
